In this section, each of the binders is paired with its reported FACS Geomean.
- Study target: T1, Soluble ASGR-1 (recombinant, biotinylated) (human, UniProt P07306 62-291, limits assumed, biotinylated)
- T1 construct: also called recombinant, soluble ASGR-1 biotinylated protein
- T1 sequence: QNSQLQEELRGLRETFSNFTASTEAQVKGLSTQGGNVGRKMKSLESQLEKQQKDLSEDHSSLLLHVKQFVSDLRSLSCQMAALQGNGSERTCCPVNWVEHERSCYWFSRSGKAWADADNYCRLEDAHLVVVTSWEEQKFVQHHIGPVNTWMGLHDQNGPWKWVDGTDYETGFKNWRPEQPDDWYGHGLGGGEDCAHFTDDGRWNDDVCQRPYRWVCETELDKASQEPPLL
- Protocol: limiting antigen bead FACS; biotinylated soluble ASGR-1 coated at 2.5 ng/mL on LumAvidin beads;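 note: hybridoma supernatants of ligand-competing antibodies bound to antigen-loaded beads, read by flow cytometry on an iQue Screener in calcium-containing buffer, higher fluorescence meaning stronger relative affinity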

| Binder | FACS Geomean |
| --- | --- |
| 193E7 (antibody, V domains shown, Tested as hybridoma supernatant) VH: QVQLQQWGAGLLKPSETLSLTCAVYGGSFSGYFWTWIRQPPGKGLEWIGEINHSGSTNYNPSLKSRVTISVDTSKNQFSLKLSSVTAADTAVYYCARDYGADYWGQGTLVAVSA VL: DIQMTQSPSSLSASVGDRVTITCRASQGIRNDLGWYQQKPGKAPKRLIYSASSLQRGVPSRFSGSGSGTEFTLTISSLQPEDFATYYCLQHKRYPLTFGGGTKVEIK | 18300 |
| 198D2 (antibody, V domains shown, Tested as hybridoma supernatant) VH: QVQLVESGGGVVQPGRSLRLSCAASGFTFRSYGMHWVRQAPGKGLEWVAVIIYDGSYKYYADSVKGRFTISRDNSKNTLYLQMNSLRAEDTAVYYCARTYSGGMDVWGQGTTVTVSS VL: QSVLTQPPSVSAAPGQKVTISCSGSSSNIGSNYVSWYQQLPGTAPKVLIYDNNKRPSGIPDRFSGSKSGTSATLGITGLQTGDEADYYCGTWDSRLNVGVFGGGTKLTVL | 1870 |
| 202A3 (antibody, V domains shown, Tested as hybridoma supernatant) VH: QVQLEQSGAEVKKPGASVKVSCKASGYTFTSYDINWVRQATGQGLEWLGWMNPKRGNTGYAQKFQGRVTMTRNTSISTAHMELSSLRSEDTAVYYCARGRYSREDYYYYYDMDVWGQGTTVTVSS VL: DIQMSQSPSSLSASVGDRVTITCRASQGIRNDLGWYQQKPGKAPKRLICAASRLQSGVPSRFSGSGSGTEFTLTISSLQPEDFAIYYCLQHHDYPFTFGPGTKVDIK | 2150 |
